Test system: SK-MEL-2 melanoma
Measurement Protocol: NCI tumour cell line growth inhibition, 48 h
Item-by-item account of TGI
Measurement Label: TGI (µM)

* C[CH2][Sn]([CH2]C)([O]C(=O)c1c(F)cccc1F)[O][Sn]([CH2]C)([CH2]C)[O]C(=O)c1c(F)cccc1F | 27.7
* CN(C)CC1CC/C(=C\c2ccc(Cl)cc2)C1=O (stereo unspecified) | 26.6
* CCC12C=CCN3CCC4(c5cc(C6(C(=O)OC)CCCCCc7c6[nH]c6ccccc76)c(OC)cc5N(C)C4C(O)(C(=O)OC)C1OC(C)=O)C32 (stereo unspecified) | 3.17
* COc1cc(C2CC(c3cccc(Nc4ccncc4)c3)=NN2c2ccccc2)cc(OC)c1OC (stereo unspecified) | 3.8
* CC(CCOc1ccc2ccc(=O)oc2c1)C1=CC(=O)C(C)(C)O1 (stereo unspecified) | 26.3
* C=CCc1cccc2cc(C(=O)NC3CCCCC3)c(=N)oc12 | 16.1
* COc1cccc2c1O/C(=C\c1ncc([N+](=O)[O-])n1C)C2=O | 0.607
* COc1ccc(C2C=C(c3ccc(OC)c(OC)c3)N=C3SC=CN32)c(Br)c1 (stereo unspecified) | 29.8
* COc1cc(C2Oc3cc(-c4oc5cc(O)cc(O)c5c(=O)c4O)ccc3OC2CO)ccc1O (stereo unspecified) | 32.6
